Origin of measurements: patent US20250333523A1

Assay Target: T1, His/Avi-CynoIL18BP (recombinant cynomolgus IL-18BP with His and Avi tags) (cynomolgus monkey)
T1 chain: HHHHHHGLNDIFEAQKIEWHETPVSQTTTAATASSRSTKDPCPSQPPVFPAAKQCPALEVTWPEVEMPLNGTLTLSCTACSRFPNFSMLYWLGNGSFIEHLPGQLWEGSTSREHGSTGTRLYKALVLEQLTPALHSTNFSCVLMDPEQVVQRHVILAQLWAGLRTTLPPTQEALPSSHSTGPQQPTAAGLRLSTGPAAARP
Experimental Protocol: cell-based or functional assay
Define the label as Fulfilled when EC50 of IFNγ release, human NK cells is strictly less than 20 nM and as Not fulfilled in all remaining cases.

{"columns": ["Binder", "Discrete Label"],
 "data": [
  ["anti-IL18BP antibody BP-13 (antibody, human IgG1, V domains shown) VH: QVQLQQSGAELVRPGASVTLSCKASGYTFTDYEMHWVKQTPVHGLEWIGPIDPETGDTAYNQKFKGQATLTADKSSSTAYMELSSLTSEDSAVYYCTRGSRGVFDYWGQGTALTVSS VL: DIVMTQSHKFMSTSVGDRVSITCKASQDVGTAVAWYQQKPGQSPKLLIYWASARHTGVPDRFTGSGSGTDFTLTISNVQSEDLADYFCQHYFNFPRTFGGGTKLEIT", "Not fulfilled"],
  ["anti-IL18BP antibody BP-02 (antibody, human IgG1, V domains shown) VH: EVQLQQSGPELVKPGASVKIPCKASGYTFTDYNMDWVKQSHGKSLEWIGNINTNNGGTVYNQKFKGKATLTVDKSSSTAYMELRSLTSEDTAVYYCARSDTTVVASRYYAMDYWGQGTSVTVSL VL: DIVLTQSPASLAMSLGKRATISCRASESVSIIATNLIHWYQQKPGQPPKLLIYHASNLETGVPARFSGSGSRTDFTLTIDPVEKDDVAIYYCLQSRKIPPTFGGGTKLEIK", "Fulfilled"],
  ["anti-IL18BP antibody BP-10 (antibody, human IgG1, V domains shown) VH: QVQLQQPGAERVEPGASVRLSCKTSGYTFTNYWMHWVKQRPGQGLEWIGMIHPESGSTNNNEKFKSKATLTVDKSSSTAYMQLSSLTSEDSAVYYCARWDRGYFDYWGQGTTLTVSS VL: DIVMTQSHKFMSTSVGDRVSITCKASQDVRSTVGWYQQRPGQSPKLLIYWTSTRHTGVPDRFTGSGSGTDYTLTISSVQAEDLALYYCQQHYSTPYTFGGGTTLEIK", "Fulfilled"],
  ["anti-IL18BP antibody BP-08 (antibody, human IgG1, V domains shown) VH: QVQLQQPGAELVKPGASVKLSCKVSGYTFTSYWMHWVKQRPGQGLEWIGMIDPNSDSSRYNEKFKNRATLTADKSSSTAFMQFSSLTSEDSAVYYCARSRLGQDYWGQGTTLTVSS VL: DIVMTQSHKFMSTSVGDRVSITCKASQDVSTAVAWYQQKPGQSPKLLIYWASTRHTGVPDRFTGSESGTDYTLIISSVQAEDLALYYCQQHFSTPYTFGGGTKLEIK", "Fulfilled"],
  ["anti-IL18BP antibody BP-12 (antibody, human IgG1, V domains shown) VH: EVQLQQSGPELVKPGASVKMSCKTSGYTFTEYTMHWVKQSHGKSLEWIGGVNPNNGGTTYNQKFRDKATLTVDKSSSTTYMEVRTLTSDDSAVYYCAPLWRVFDYWGQGTTLTVSS VL: DIVMTQSHKFMSSSVGDRVSITCKASQDVGTAVAWYQQKPGQSPKLLIYWASTRHTGVPDRFTGSGSGTDFTLTISNVQSEDLADYFCHQFSRYPLTFGAGTKLELK", "Not fulfilled"],
  ["anti-IL18BP antibody BP-06 (antibody, human IgG1, V domains shown) VH: QIQLQQSGPELVKPGASVKISCKASGYTFTDYYLNWVKQTPGQGLEWIGWIYPGSGNTKYTEKFKDKASLTVDTSSNTAYMQLSSLTSDDTAVYFCARRGVAWFAYWGQGTLVTVSA VL: DIKMTQSPSSIYASLGERVTITCKASQDINSYLSWFQQKPGKSPKTLIHRANRLVDGVPSRFSGSGSGQDYSLTISSLEYEDMGIYYCLQHDDFPPTFGAGTNLELK", "Fulfilled"],
  ["anti-IL18BP antibody BP-09 (antibody, human IgG1, V domains shown) VH: QVQLQQSGAELVRPGASVTLSCKASGYRFTDYAMHWVKQTPVHGLQWIGIIDPETGDTAFNQKFKGKATLTADKSSSTAYMELSSLTSEDSAVYYCTRPRGAMDYWGQGTSVTVSS VL: DIVMTQSHKFMSTSGGDRVSITCKASQDVGTAVAWYQQKPGISPKLLIYWASTRHTGVPDRFTGSGSGTDFTLAISNVQSEDLADYFCQQYSSHPYTFGGGTKLEIK", "Not fulfilled"]
]}
